# measured target: rat lens aldose reductase (RLAR) (Rattus norvegicus)
# Construct: from tissue; host or cells: lens of Sprague-Dawley rats (supernatant of homogenate)
# experimental details: RLAR inhibitory activity assay (rat lens homogenate, DL-glyceraldehyde substrate)
# Type: biochemical
# measurement parameters: rat lens homogenate; substrate DL-glyceraldehyde; mean ± S.E.M. of triplicate experiments; read-out: RLAR IC50
assay metric: IC50 (µM)
Just the number in µM, nothing appended.

compound: CC(C)=CCC[C@](C)(O[C@@H]1O[C@H](CO[C@@H]2OC[C@H](O)[C@H](O)[C@H]2O)[C@@H](O)[C@H](O)[C@H]1O)[C@H]1CC[C@]2(C)[C@@H]1[C@H](O)C[C@@H]1[C@@]3(C)CC[C@H](O[C@@H]4O[C@H](CO)[C@@H](O)[C@H](O)[C@H]4O[C@@H]4O[C@H](CO)[C@@H](O)[C@H](O)[C@H]4O)C(C)(C)[C@@H]3CC[C@]12C [Ginsenoside Rb2]
measured target: rat lens aldose reductase (RLAR) (Rattus norvegicus)
assay metric: IC50
units: µM
result: 121

IN: Recorded IC50 for CC(C)=CCC[C@](C)(O[C@@H]1O[C@H](CO[C@@H]2O[C@H](CO)[C@@H](O)[C@H](O)[C@H]2O)[C@@H](O)[C@H](O)[C@H]1O)[C@H]1CC[C@]2(C)[C@@H]1[C@H](O)C[C@@H]1[C@@]3(C)CC[C@H](O[C@@H]4O[C@H](CO)[C@@H](O)[C@H](O)[C@H]4O[C@@H]4O[C@H](CO)[C@@H](O)[C@H](O)[C@H]4O)C(C)(C)[C@@H]3CC[C@]12C [Ginsenoside Rb1] with rat lens aldose reductase (RLAR) (Rattus norvegicus), please?
OUT: 103
